Test system: HSkMC (human skeletal muscle cells)
Test: cytotoxicity call (relative viability < 0.9)
Conditions: 10 µM
The campaign covered roughly 39,000 compounds. About 1,500 (3.8%) were called active. The sample as a whole holds a higher share of actives than the screen did.
assay_endpoint: cytotoxicity call

INSERT INTO assay_data (entry_smiles, target_under_test, data_value) VALUES
  ('C[C@H](CO)N1C[C@H](C)[C@@H](CN(C)C(=O)c2ccccc2)OCCCC[C@H](C)Oc2ccc(NC(=O)Nc3ccccc3)cc2C1=O', 'HSkMC', 'inactive'),
  ('O=C1O[C@@H](c2ccccc2)[C@@H](c2ccccc2)N2[C@@H](c3ccc(OCCO)cc3)[C@]3(C(=O)Nc4ccc(C#CC5(O)CCCCCC5)cc43)[C@@H](C(=O)Nc3nc4ccccc4s3)[C@H]12', 'HSkMC', 'inactive'),
  ('Cc1ccc(S[C@]2(C(=O)NCCCN(C)C)CC(=O)N(Cc3ccccc3C(F)(F)F)[C@@H]2c2ccc(CO)cc2I)cc1', 'HSkMC', 'inactive'),
  ('C[C@@H]1CCCCO[C@@H](CN(C)S(=O)(=O)c2cccs2)[C@H](C)CN([C@H](C)CO)C(=O)c2cc(NC(=O)Nc3cccc4ccccc34)ccc2O1', 'HSkMC', 'inactive'),
  ('C[C@@H]1CCCCO[C@@H](CN(C)CC2CCCCC2)[C@H](C)CN([C@H](C)CO)C(=O)c2cc(NC(=O)CCC(F)(F)F)ccc2O1', 'HSkMC', 'inactive'),
  ('CC(C)NC(=O)N[C@H]1C=C[C@@H](CC(=O)NCCN2CCCC2)O[C@H]1CO', 'HSkMC', 'inactive'),
  ('CN(C)CCCCNC(=O)[C@H]1C[C@H]2C(=O)N3CCC[C@H]3C(=O)N2[C@H]1c1cccc(OCCO)c1', 'HSkMC', 'inactive');
